EXPERIMENTAL SYSTEM: T1, human IL-6 (human, UniProt P05231 30-212)
T1 construct: also called interleukin-6
T1 sequence (P05231 30-212 limits assumed): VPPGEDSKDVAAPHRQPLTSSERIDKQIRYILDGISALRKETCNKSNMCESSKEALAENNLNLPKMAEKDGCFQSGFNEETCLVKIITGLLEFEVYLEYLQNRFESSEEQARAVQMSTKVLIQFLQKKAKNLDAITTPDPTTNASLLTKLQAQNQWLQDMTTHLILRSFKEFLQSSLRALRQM
EXPERIMENT DESCRIPTION: SPR (Biacore T200), purified antibody captured on Protein A, IL-6 flowed over, 37 C
PROPERTY LABEL: koff (s⁻¹)
Report the figure in s⁻¹ without appending any unit label.

INSERT INTO results (binder, property_label, endpoint_value) VALUES
  ('anti-IL-6 antibody, heavy chain T63E, G66D / light chain WT (antibody, human IgG1, V domains shown, Derived as m2; Engineered human IgG1) VH: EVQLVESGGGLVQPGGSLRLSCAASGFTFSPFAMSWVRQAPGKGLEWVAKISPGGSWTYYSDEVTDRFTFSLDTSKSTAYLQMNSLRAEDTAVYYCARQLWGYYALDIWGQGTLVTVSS VL: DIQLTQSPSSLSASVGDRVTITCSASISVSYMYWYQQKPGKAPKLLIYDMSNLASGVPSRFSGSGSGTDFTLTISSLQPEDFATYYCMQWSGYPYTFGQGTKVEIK', 'koff', 0.000252),
  ('anti-IL-6 antibody, heavy chain S35H, G66D / light chain WT (antibody, human IgG1, V domains shown, Derived as m2; Engineered human IgG1) VH: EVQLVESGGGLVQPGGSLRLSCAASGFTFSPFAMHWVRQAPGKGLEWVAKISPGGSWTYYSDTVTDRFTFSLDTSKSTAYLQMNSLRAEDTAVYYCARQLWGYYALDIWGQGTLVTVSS VL: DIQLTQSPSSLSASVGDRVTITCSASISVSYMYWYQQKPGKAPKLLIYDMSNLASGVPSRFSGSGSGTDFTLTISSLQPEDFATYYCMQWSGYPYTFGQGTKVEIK', 'koff', 0.000185);

Now let's try a different one.
[in] Requested field: koff. Item: anti-IL-6 antibody, heavy chain T65Q, G66D / light chain WT (antibody, human IgG1, V domains shown, Derived as m2; Engineered human IgG1) VH: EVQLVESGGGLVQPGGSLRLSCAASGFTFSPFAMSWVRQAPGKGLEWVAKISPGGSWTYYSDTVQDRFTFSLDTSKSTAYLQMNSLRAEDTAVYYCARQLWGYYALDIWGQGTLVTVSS VL: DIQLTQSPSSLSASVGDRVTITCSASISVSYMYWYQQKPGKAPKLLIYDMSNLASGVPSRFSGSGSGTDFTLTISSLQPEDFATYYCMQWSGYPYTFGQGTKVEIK
[out] 0.000262
